// data source = patent US6509329B1

- Tested on: adhesion of U937 cells to HUVEC stimulated by IL-1β or TNFα
- Assay name: Inhibitory effect on cell adhesion (U937 adhesion to stimulated HUVEC)
- Type: cell-based
- Condition details: Homo sapiens; compound at 1 μM; HUVEC stimulated by TNFα for 5 hours; fluorescence-labeled U937 adhesion for 1 hour; read-out: Percent inhibition (%) of cell adhesion, Stimulation by TNFα
- Protocol: This test was conducted by reference to the method of Ross et al. (J. Biol. Chem., 267, 8537-8543 (1992)). More specifically, after human umbilical venous endothelial cells (HUVEC) were cultured on a 48-well plate to confluent growth, IL−1β or TNFα was added thereto. Upon elapsed time of 5 hours after the addition, U937, which is a human monocytic/histocytic cell fluorescence-labeled with PKH2 (product of Dainippon Pharmaceutical Co., Ltd.), was added in a proportion of 1×10^6 cells per well. […]
I'd be grateful if you could share measured inhibition at 1 µM for these entries.

Worked cases, inhibition at 1 µM given:
COc1cc(C#Cc2cc(CN3CCN(Cc4ccnc(C#Cc5cc(OC)c(OC)c(OC)c5)c4)CC3)ccn2)cc(OC)c1OC; 50%
COc1cc(-c2cc(CN3CCN(Cc4ccnc(-c5cc(OC)c(OC)c(OC)c5)c4)CC3)ccn2)cc(OC)c1OC; 64%
COc1cc(-c2cccc(CN3CCCN(Cc4cccc(-c5cc(OC)c(OC)c(OC)c5)c4)CC3)c2)cc(OC)c1OC; 43%
COc1cc(-c2cc(CN3CCCN(Cc4ccnc(-c5cc(OC)c(OC)c(OC)c5)c4)CC3)ccn2)cc(OC)c1OC; 71%

Please examine the following record next.
stdin: May I ask what inhibition at 1 µM has been recorded for COc1cc(C(=O)OCCCN2CCCN(CCCOC(=O)c3cc(OC)c(OC)c(OC)c3)CC2)cc(OC)c1OC [Dilazep, dilazep, reference compound] ?
stdout: 12%
